Molecular target: T1, recombinant human CD40 (ECD)-his (human, UniProt P25942 21-193)
T1 construct: Bought protein; also called hCD40(ECD)-his; TNFRSF5
T1 sequence (P25942 21-193): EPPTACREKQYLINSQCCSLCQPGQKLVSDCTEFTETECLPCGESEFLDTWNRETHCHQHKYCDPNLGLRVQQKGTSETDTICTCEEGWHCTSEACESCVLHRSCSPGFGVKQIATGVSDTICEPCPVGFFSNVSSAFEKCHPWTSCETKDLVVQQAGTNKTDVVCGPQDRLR
Assay: SPR (Biacore 8K), hCD40(ECD)-his coupled to chip, antibody injected
assay metric: koff (s⁻¹)
A number alone suffices; assume s⁻¹.

Query block: Looking for the measured koff of 7B4-VH2VL2 (antibody, V domains shown, Humanized, human IgG2/kappa; also called 7B4H2L2) VH: QVQLQESGPGLVKPSDTLSLTCAVSGYSITTNYYWNWIRQPPGKGLEWMGYIKYDGSNNYNPSLKNRITISVDTSKNQFSLKLSSVTAVDTAVYYCARLDYWGQGTLVTVSS VL: DVVLTQSPLSLPVTLGQPASISCRSSQSLENSNGNTFLNWFQQRPGQSPRLLIYKVSNRFSGVPDRFSGSGSGTDFTLKISRVEAEDVGVYYCLQVTHVPFTFGQGTKLEIKR , can you help?
Result block: 0.00581

Query block: Field entry: 7B4-VH3VL2 (antibody, human IgG2, V domains shown, Humanized, human IgG2/kappa) VH: QVQLQESGPGLVKPSDTLSLTCAVSGYSITTNYYWNWIRQPPGNKLEWMGYIKYDGSNNYNPSLKNRITISVDTSKNQFSLKLSSVTAVDTAVYYCARLDYWGQGTLVTVSS VL: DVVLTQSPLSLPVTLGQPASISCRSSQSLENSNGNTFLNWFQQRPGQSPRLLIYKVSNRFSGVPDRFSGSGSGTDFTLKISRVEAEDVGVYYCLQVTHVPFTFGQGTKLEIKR
Result block: 0.00615
